Attribution: PubChem BioAssay (NCI)

Test system: OVCAR-4 ovarian
Experiment: NCI-60 one-dose screen, 48 h (100 = growth as untreated, 0 = no growth, -100 = all killed)
Details: 10 µM unless noted
About 83,000 compounds went through this panel and 20% of them were active in at least one assay; those are over-represented in the sample as a whole.
growth for assorted compounds
Report the figure in % without appending any unit label.

Example entries begin here.
CCN1CCN(C(=O)[C@]23CCC(C)(C)C[C@H]2C2=CC[C@@H]4[C@@]5(C)Cc6c([nH]c7ccccc67)C(C)(C)[C@@H]5CC[C@@]4(C)[C@]2(C)CC3)CC1 = 99.7
COc1ccc(Cn2cc3c(c2-c2cc(OC)c(OC)c(OC)c2)CCc2c(CN4CCOCC4)noc2-3)cc1 = 52.8
Cc1cc2nc(C(Cl)Cl)nc(-c3cccs3)n2n1 = 14.9

Could you now consider this next compound?
According to the records, this compound "NS(=O)(=O)c1ccc(Nc2nc(SCc3ccccc3)nc3ccccc23)cc1" displays growth of 58

====

System: MCF7 breast
Test: NCI-60 one-dose screen, 48 h (100 = growth as untreated, 0 = no growth, -100 = all killed)
Details: 10 µM unless noted
The panel holds about 83,000 compounds, 20% with a hit somewhere; the sample as a whole holds those more often.
measurement type: growth (%)
Report the figure in % without appending any unit label.

O=C(Nc1cccc(Cl)c1)Nc1nc2ccc([N+](=O)[O-])cc2o1 = 12.1
CNC(=O)c1cc(Oc2ccc3nc(NC(=O)c4ccc(N5CCOCC5)c(C(F)(F)F)c4)sc3c2)ccn1 = 70

According to the records, this molecule "NC(=O)c1cccc(C#CCNC[C@H]2C[C@@H](n3ccc4c(Cl)ncnc43)[C@H](O)[C@@H]2O)c1" displays growth of 96.5

According to the records, this molecule "Cc1cc2nc(C(Cl)Cl)nc(-c3cccs3)n2n1" displays growth of 12.1

According to the records, this molecule "C#Cc1nc(C(=O)NCCC(=O)Nc2ccc(NC(=O)c3ccc(/C=C/C(=O)c4nccn4C)cc3)cc2)cs1" displays growth of 8.54

====

Test system: PC-3 prostate
Experiment: NCI-60 one-dose screen, 48 h (100 = growth as untreated, 0 = no growth, -100 = all killed)
Settings: 10 µM unless noted
About 83,000 compounds went through this panel and 20% of them were active in at least one assay; those are over-represented in the sample as a whole.
measurement type: growth (%)
Report the figure in % without appending any unit label.

Example entries begin here.
COc1cc2c(cc1OC)C(Sc1ccc(F)cc1)c1c(nc(N)c(C#N)c1N)O2 (stereo not given) = -84
COc1cccc(O)c1/C=C(/C)c1ccc2c(OC)cccc2[o+]1 = 97.5
Cn1cc(-c2cc(N)n3nc(-c4cn(C)c5ccccc45)cc3n2)c2ccccc21 = 88.8
CC(=O)N1C(=S)NC(=O)C1CC(C)C (stereo not given) = 106
O=C(CSc1nc2ccccc2c(=O)n1-c1ccccc1)Nc1cccc(C(=O)/C=C/c2ccccc2Cl)c1 = 99.4

According to the records, this molecule "CNC(=O)c1cc(-c2ccc(NC(=S)Nc3cc(C(F)(F)F)cc(C(F)(F)F)c3)cc2)nc2cccnc12" displays growth of 80.6

According to the records, this molecule "O=c1[nH]c2ccccc2cc1CSc1ccccc1Nc1nccc(-c2ccc(Cl)cc2)n1" displays growth of 87.9

According to the records, this molecule "N/C(=N\C(N)=N\c1nc2ccccc2s1)c1ccc2ccccc2c1" displays growth of 50.6

According to the records, this molecule COc1cc2c(cc1OC)C(Sc1ccc(C)cc1)c1c(nc(N)c(C#N)c1N)O2 (stereo not given) displays growth of -71.1

According to the records, this molecule "CCCCCCCn1cc2c(NCCc3ccccc3)ncnc2n1" displays growth of 92.8
